experiment: Tem pharmacokinetics in whole blood; type: in vivo, human; conditions: human, whole blood, iv, T1/2, cycle 5, Tem 60 mg/m^2 IV weekly with VPA, N = 1
observedProperty: half-life (h)
Enter your answer as a number in h; do not include the unit.

Request: // query half-life value for entry CO[C@H]1C[C@@H]2CC[C@@H](C)[C@@](O)(O2)C(=O)C(=O)N2CCCC[C@H]2C(=O)O[C@H]([C@H](C)C[C@@H]2CC[C@@H](OC(=O)C(C)(CO)CO)[C@H](OC)C2)CC(=O)[C@H](C)/C=C(\C)[C@@H](O)[C@@H](OC)C(=O)[C@H](C)C[C@H](C)/C=C/C=C/C=C/1C [Tem, Temsirolimus]
Response: 8.4

###

assay: VPA serum/plasma levels during treatment; format: in vivo, human; conditions: human, plasma, oral
observedProperty: concentration at 24 h (µg/mL)
The answer is to be given in µg/mL; state only the numeric part.

Request: I'd like to know its concentration at 24 h. The compound in question is CCCC(CCC)C(=O)O
Response: 52

###

experiment: Tem pharmacokinetics in whole blood; assay type: in vivo, human; conditions: human, whole blood, iv, 35 mg/m^2, AUClast, cycle 1, Tem 35 mg/m^2 IV weekly with VPA, 0 to 24 hours post dose, median, N = 3
observedProperty: AUC(0-t) (ng·h/mL)
Quick note: give the figure in ng·h/mL, leave out the unit.

Request: Which measured AUC(0-t) value corresponds to CO[C@H]1C[C@@H]2CC[C@@H](C)[C@@](O)(O2)C(=O)C(=O)N2CCCC[C@H]2C(=O)O[C@H]([C@H](C)C[C@@H]2CC[C@@H](OC(=O)C(C)(CO)CO)[C@H](OC)C2)CC(=O)[C@H](C)/C=C(\C)[C@@H](O)[C@@H](OC)C(=O)[C@H](C)C[C@H](C)/C=C/C=C/C=C/1C ?
Response: 7550
